Data origin: patent US10494332B2

Quick list: pIC50 per entry.
Molecular target: mPTPB (Mycobacterium tuberculosis)
Sequence (I6WXK4 1-276): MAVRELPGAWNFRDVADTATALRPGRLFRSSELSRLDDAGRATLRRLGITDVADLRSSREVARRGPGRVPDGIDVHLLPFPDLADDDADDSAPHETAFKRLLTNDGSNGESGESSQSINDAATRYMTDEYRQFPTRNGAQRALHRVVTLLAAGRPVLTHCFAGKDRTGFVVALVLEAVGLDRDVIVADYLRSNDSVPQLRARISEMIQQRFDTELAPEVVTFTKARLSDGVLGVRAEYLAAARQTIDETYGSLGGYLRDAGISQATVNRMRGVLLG
Test: biochemical
Details: IC50 mPTPB
The read-out pIC50 is expressed as -log10 of concentration in moles per litre.

// below: answered compounds
[[record]]
compound = "O=C(Nc1ccc2nc(C(F)(F)F)[nH]c2c1)C(c1ccccc1)S(=O)(=O)O (centres unmarked)"
reported = 7.11

[[record]]
compound = "O=C(Nc1cccc(OCc2ccccc2)c1)C(c1ccccc1)S(=O)(=O)O (centres unmarked)"
reported = 6.97

[[record]]
compound = "O=C(CS(=O)(=O)O)Nc1cnc2ccccc2c1"
reported = 4.26

[[record]]
compound = "Cc1c(Br)cc(NC(=O)CS(=O)(=O)O)cc1Br"
reported = 5.51

[[record]]
compound = "O=C(Nc1ccc(N2CCOCC2)cc1)C(c1ccccc1)S(=O)(=O)O (centres unmarked)"
reported = 5.30

[[record]]
compound = "O=C(Nc1nc2ccccc2s1)C(c1ccccc1)S(=O)(=O)O (centres unmarked)"
reported = 6.94


QUERY: Report pIC50 for O=C(Nc1cnc2ccccc2c1)C(c1ccccc1)S(=O)(=O)O (centres unmarked) please.
RESULT: 6.55

QUERY: State the recorded pIC50 for this entry: O=C(CS(=O)(=O)O)Nc1nc2ccccc2s1
RESULT: 5.02

----------
Molecular target: HePTP (Homo sapiens)
Sequence (P35236 whole entry): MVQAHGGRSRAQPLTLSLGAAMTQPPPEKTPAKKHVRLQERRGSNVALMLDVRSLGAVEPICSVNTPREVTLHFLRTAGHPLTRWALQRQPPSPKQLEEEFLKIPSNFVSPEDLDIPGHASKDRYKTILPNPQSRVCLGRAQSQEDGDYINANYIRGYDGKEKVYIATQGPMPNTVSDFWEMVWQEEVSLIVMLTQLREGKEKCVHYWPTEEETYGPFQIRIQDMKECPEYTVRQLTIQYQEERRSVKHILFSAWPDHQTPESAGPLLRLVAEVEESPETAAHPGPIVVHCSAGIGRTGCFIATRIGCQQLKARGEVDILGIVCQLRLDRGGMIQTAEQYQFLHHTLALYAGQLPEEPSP
Assay: PTP inhibition assay (pNPP)
Type: biochemical
Conditions: pNPP at Km, pH 7.0, 25° C.
pIC50: −log10 of the molar value.
reported metric: pIC50

[[record]]
molecule = "O=C(C(c1ccccc1)S(=O)(=O)O)N1CCC(c2ccc(Cl)c(Cl)c2)CC1 (stereo not shown)"
reported = 4.11

[[record]]
molecule = "O=C(Nc1ccc(-c2ccccc2)cc1)C(c1ccccc1)S(=O)(=O)O (stereo not shown)"
reported = 4.11

[[record]]
molecule = "O=C(CS(=O)(=O)O)Nc1nc2ccc([N+](=O)[O-])cc2s1"
reported = "< 4.00"


QUERY: Field request: pIC50 | item: CCCCc1ccc(NC(=O)C(=O)Nc2ccccc2NC(=O)C(c2ccccc2)S(=O)(=O)O)cc1 (stereo not shown)
RESULT: < 4.30

QUERY: Looking for the measured pIC50 of O=C(Nc1cnc2ccccc2c1)C(c1ccccc1)S(=O)(=O)O (stereo not shown) , can you help?
RESULT: < 3.70

----------
Biological target: STEP (Homo sapiens, UniProt P54829)
Sequence (P54829 1-565): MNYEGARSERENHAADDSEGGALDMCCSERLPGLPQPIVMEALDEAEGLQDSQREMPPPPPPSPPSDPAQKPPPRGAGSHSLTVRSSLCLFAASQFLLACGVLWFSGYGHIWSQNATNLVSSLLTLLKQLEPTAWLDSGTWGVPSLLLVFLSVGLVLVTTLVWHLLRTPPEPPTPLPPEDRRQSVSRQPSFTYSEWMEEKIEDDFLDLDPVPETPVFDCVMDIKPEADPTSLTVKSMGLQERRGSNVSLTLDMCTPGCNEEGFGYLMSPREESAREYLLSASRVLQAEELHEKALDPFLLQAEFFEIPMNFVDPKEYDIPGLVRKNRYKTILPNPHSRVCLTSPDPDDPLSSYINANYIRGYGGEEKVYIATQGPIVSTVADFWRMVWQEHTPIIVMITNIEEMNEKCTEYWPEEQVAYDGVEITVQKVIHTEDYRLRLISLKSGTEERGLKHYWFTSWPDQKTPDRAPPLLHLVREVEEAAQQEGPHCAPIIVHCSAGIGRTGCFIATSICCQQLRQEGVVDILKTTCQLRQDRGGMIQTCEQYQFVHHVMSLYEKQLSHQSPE
Assay: PTP inhibition assay (pNPP)
Assay type: biochemical
Conditions: pNPP at Km, pH 7.0, 25° C.; read-out: IC50 STEP
reported metric: IC50

[[record]]
compound = "O=C(Nc1cnc2ccccc2c1)C(c1ccccc1)S(=O)(=O)O (stereo not shown)"
target_under_test = "STEP (Homo sapiens, UniProt P54829)"
reported_metric = "IC50"
reported = "> 200 µM"

[[record]]
compound = "O=C(C(c1ccccc1)S(=O)(=O)O)N1CCC(Cc2ccccc2)CC1 (stereo not shown)"
target_under_test = "STEP (Homo sapiens, UniProt P54829)"
reported_metric = "IC50"
reported = "> 200 µM"

[[record]]
compound = "O=C(CS(=O)(=O)O)Nc1nc2ccc([N+](=O)[O-])cc2s1"
target_under_test = "STEP (Homo sapiens, UniProt P54829)"
reported_metric = "IC50"
reported = "> 100 µM"


With those in mind, consider the next compound.
QUERY: # IC50 lookup, item O=C(Nc1ccc2nc(C(F)(F)F)[nH]c2c1)C(c1ccccc1)S(=O)(=O)O (stereo not shown)
RESULT: > 200 µM

----------
Target: LYP (Homo sapiens, UniProt Q9Y2R2)
Sequence (Q9Y2R2 whole entry): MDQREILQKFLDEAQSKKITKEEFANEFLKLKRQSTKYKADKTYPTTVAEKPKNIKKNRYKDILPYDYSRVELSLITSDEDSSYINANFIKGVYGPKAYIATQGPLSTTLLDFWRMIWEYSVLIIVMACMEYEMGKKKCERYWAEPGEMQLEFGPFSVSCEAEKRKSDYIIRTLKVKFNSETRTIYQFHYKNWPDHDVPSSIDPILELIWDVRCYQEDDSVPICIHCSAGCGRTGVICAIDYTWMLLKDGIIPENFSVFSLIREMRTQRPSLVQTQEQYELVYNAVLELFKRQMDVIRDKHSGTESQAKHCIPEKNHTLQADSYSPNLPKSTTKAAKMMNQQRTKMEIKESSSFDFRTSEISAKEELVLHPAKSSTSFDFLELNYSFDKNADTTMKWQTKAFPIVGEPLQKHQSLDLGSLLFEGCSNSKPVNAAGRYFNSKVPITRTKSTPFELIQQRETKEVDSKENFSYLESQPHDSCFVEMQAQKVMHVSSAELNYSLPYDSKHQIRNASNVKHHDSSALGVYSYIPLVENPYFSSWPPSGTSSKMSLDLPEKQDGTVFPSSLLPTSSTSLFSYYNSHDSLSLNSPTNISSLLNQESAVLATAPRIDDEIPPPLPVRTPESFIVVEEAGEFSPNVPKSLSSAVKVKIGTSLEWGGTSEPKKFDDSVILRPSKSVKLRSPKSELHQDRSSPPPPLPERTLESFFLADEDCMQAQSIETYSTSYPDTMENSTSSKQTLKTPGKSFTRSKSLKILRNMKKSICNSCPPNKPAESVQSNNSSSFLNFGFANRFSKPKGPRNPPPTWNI
Experiment: PTP inhibition assay (pNPP)
Format: biochemical
Conditions: […]; LYP
reported metric: pIC50
Just the number, please; pIC50 means minus log10 of the concentration in mol/L.

[[record]]
molecule = "O=C(Nc1ccc(N2CCOCC2)cc1)C(c1ccc2ccccc2c1)S(=O)(=O)O (stereo not shown) [Compound L319-14-M68]"
reported = 5.08

[[record]]
molecule = "O=C(NNc1ccccc1[N+](=O)[O-])C(c1ccc(-c2ccccc2)cc1)S(=O)(=O)O (stereo not shown) [Compound L319-16-N55]"
reported = 4.46

[[record]]
molecule = "O=C(Nc1ccc(OCc2ccccc2)c(Cl)c1)C(c1ccc2ccccc2c1)S(=O)(=O)O (stereo not shown) [Compound L319-14-M50]"
reported = 4.64


Lab note: next molecule to report on.
QUERY: Return reported pIC50; argument: Cc1ccc(C(C(=O)Nc2ccc(N3CCOCC3)cc2)S(=O)(=O)O)cc1 (stereo not shown) [Compound L319-11-M68]
RESULT: 5.12

----------
Consider the following compounds and their measured IC50 readings.
Biological target: Laforin (Homo sapiens)
Sequence (O95278 whole entry): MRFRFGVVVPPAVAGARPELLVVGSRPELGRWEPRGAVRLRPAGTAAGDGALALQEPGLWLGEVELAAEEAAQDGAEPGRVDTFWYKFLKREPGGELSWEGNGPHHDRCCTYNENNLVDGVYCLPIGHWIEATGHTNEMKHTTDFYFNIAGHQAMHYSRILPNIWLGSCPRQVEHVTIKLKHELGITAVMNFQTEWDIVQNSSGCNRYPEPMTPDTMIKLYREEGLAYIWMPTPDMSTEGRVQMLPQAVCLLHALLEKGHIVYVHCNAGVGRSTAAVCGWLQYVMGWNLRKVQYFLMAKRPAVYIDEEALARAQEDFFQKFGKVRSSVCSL
Test: PTP inhibition assay (pNPP)
Assay type: biochemical
Details: pNPP at Km, pH 7.0, 25° C.; read-out: IC50 Laforin

A selection of reference data follows.
[[record]]
compound = "O=C(O)c1ccc2nc(NC(=O)C(c3ccccc3)S(=O)(=O)O)sc2c1 (stereo not shown) [Compound L319N15-13]"
reported = "> 200 µM"

[[record]]
compound = "O=C(Nc1nc2ccccc2s1)C(c1ccccc1)S(=O)(=O)O (stereo not shown) [Compound L319N15]"
reported = "2.1 µM"

[[record]]
compound = "O=C(Nc1ccc(OCc2ccccc2)c(Cl)c1)C(c1ccccc1)S(=O)(=O)O (stereo not shown) [Compound L319M50]"
reported = "2.06 µM"

[[record]]
compound = "O=C(C(c1ccccc1)S(=O)(=O)O)N1CCC(c2ccc(Cl)c(Cl)c2)CC1 (stereo not shown) [Compound L319N47]"
reported = "61 µM"

[[record]]
compound = "O=C(Nc1cccc(OCc2ccccc2)c1)C(=O)Nc1ccccc1NC(=O)C(c1ccccc1)S(=O)(=O)O (stereo not shown) [Compound L319-21-M52]"
reported = "0.15 µM"


Here is the next item to consider.
QUERY: Fill blank: measured IC50 of the compound Cc1cccc2sc(NC(=O)C(c3ccccc3)S(=O)(=O)O)nc12 (stereo not shown) [Compound L319N15-02] is ____.
RESULT: 4 µM

----------
Molecular target: TcPTP (Homo sapiens, UniProt P17706)
Sequence (P17706 1-415): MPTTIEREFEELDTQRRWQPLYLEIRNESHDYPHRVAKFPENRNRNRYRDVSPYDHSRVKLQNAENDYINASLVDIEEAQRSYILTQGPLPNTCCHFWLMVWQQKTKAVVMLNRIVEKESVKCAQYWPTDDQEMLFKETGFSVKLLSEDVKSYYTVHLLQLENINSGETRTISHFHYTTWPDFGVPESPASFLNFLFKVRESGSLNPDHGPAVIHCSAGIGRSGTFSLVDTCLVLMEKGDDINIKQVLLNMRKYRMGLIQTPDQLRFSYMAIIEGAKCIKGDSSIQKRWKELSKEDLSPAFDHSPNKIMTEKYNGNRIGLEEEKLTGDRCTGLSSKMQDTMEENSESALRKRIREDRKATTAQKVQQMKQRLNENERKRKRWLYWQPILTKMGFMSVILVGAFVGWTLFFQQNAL
Assay: PTP inhibition assay (pNPP)
Type: biochemical
Details: pNPP at Km, pH 7.0, 25° C.; read-out: IC50 TcPTP
Below is a list of entries, each paired with its recorded IC50 value.

QUERY: Need IC50 of O=C(CS(=O)(=O)O)Nc1ccc2nc(C(F)(F)F)[nH]c2c1 , thanks.
RESULT: > 100 µM

QUERY: Reported IC50, molecule O=C(C(c1ccccc1)S(=O)(=O)O)N1CCCC2CCCCC21 (centres unmarked) : ____
RESULT: > 200 µM

QUERY: Sample O=C(Nc1ccc2nc(C(F)(F)F)[nH]c2c1)C(c1ccccc1)S(=O)(=O)O (centres unmarked) — what was its IC50?
RESULT: > 200 µM

QUERY: So what's the measured IC50 for this one? O=C(CS(=O)(=O)O)Nc1nc2ccccc2s1
RESULT: > 100 µM

QUERY: Fill in: IC50 of CCCCc1ccc(NC(=O)C(=O)Nc2ccccc2NC(=O)C(c2ccccc2)S(=O)(=O)O)cc1 (centres unmarked) is ___
RESULT: > 50 µM
